Target: Hfq (E. coli, UniProt P0A6X3 1-102)
Sequence (P0A6X3 whole entry): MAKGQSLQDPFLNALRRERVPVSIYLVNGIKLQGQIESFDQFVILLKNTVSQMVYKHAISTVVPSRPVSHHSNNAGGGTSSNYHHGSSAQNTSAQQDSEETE
Assay: MST

{"Binder": "GACUCAGUGUCAGAGUCACUG (ssRNA) [J6]", "binding result": "no binding"}
{"Binder": "AACUCAAUGUCUUAGUUACUG (ssRNA) [J4]", "binding result": "binds"}
{"Binder": "AAUUCAAUGUUUUAGUUACUG (ssRNA) [J3]", "binding result": "binds"}
{"Binder": "JM6 (dsRNA) RNA 1: GACUCAGUGUCAGAGUCACUG RNA 2: CAGUGACUCUGACACUGAGUC", "binding result": "no binding"}
